Provenance of the data: paper PMC7950324

SYSTEM TESTED: ɑ1AAR (Homo sapiens, UniProt P35348)
Sequence (P35348 whole entry): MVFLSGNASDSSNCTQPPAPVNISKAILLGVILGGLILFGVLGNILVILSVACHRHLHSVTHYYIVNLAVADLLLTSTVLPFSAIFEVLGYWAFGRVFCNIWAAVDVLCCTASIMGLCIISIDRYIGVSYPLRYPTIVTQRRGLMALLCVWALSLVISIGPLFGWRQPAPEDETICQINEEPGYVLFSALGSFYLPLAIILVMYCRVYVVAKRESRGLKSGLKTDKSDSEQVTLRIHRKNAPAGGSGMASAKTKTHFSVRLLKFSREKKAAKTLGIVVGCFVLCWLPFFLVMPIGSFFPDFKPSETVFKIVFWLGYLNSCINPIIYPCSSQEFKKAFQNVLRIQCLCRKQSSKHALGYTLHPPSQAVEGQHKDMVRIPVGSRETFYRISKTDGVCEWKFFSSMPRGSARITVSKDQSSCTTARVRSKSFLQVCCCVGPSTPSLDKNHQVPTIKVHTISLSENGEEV
PROCEDURE SUMMARY: α1AAR ligand screening, plasma membrane–ligand BRET (α1AAR with GLuc–PM)
RUN PARAMETERS: 20 min, read-out: plasma membrane-ligand BRET decrease (%) Replicate1
MEASURED METRIC: inhibition at 10 µM (%)
Give bare numbers, in %.

Study these solved cases before continuing.
> print(dat)
                       compound                         system.tested      measured.metric  value.units  result
1  Cc1cc(C(=O)NCc2ccc(F)cc2)on1  ɑ1AAR (Homo sapiens, UniProt P35348)  inhibition at 10 µM            %   -12.9
2  Cc1ccnc(SCc2nc3ccccn3c2Br)n1  ɑ1AAR (Homo sapiens, UniProt P35348)  inhibition at 10 µM            %   -10.3

Respectfully, I request inhibition at 10 µM for each entry included below.
1. CCCN1CCC(N2CCN(S(=O)(=O)c3ccc(C)cc3)CC2)CC1
2. FC(F)(F)c1cccc(OCCn2cncn2)c1
3. O=C(c1noc2c1COc1ccccc1-2)N1CCN(c2cccc(Cl)c2)CC1
4. COc1ccc(C(=O)NCCN2CCN(C(=O)c3ccc(OC)c(OC)c3)CC2)cc1OC
5. O=C(Cn1nnc2ccccc21)N1CCC(n2c(=O)oc3ccccc32)CC1
6. CN1CCN(C(=O)c2ccc(-n3nc(C(F)(F)F)c4c3CCCC4)cc2)CC1
7. COc1ccccc1NS(=O)(=O)c1ccc2c(c1)SC(C)C(=O)N2 (centres unmarked)
8. O=C(CN1CCC(N2CCCCC2)CC1)N1CCC2(CC1)OCCO2

1. -0.92
2. 2.21
3. -4.28
4. 0.72
5. -4.37
6. 3.59
7. -3.44
8. -4.89

###

SYSTEM TESTED: GLuc–AT1R (Rattus norvegicus, UniProt P25095)
Construct: Gaussia luciferase signal peptide (N); expressed in transfected cells; host or cells: HEK 293T
Sequence (P25095 1-359): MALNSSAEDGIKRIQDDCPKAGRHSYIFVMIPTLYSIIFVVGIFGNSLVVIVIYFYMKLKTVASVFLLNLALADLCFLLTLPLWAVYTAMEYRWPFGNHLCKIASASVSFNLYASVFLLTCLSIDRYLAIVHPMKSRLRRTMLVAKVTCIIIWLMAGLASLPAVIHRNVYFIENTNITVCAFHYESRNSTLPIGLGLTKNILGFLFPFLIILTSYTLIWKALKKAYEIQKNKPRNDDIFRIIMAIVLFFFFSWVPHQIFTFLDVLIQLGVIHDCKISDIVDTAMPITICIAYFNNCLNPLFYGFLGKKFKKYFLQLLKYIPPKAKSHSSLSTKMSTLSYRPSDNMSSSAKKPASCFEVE
PROCEDURE SUMMARY: Receptor–ligand BRET equilibrium binding, GLuc–AT1R in HEK 293T cells
RUN PARAMETERS: 1 μM TAMRA–AngII, two site competitive fit, 2 h room temperature; read-out: IC50_Lo
MEASURED METRIC: IC50 (nM)
Give bare numbers, in nM.

// returns reported IC50 for input CCOc1nc2cccc(C(=O)O)c2n1Cc1ccc(-c2ccccc2-c2nnn[nH]2)cc1 [candesartan]
1.3

###

SYSTEM TESTED: GLuc–ɑ1AAR (Homo sapiens)
Construct: Gaussia luciferase signal peptide (N); […]; expressed in transfected cells; host or cells: HEK 293T
PROCEDURE SUMMARY: Receptor–ligand BRET equilibrium binding, GLuc–α1AAR in HEK 293T cells
RUN PARAMETERS: 375 nM BODIPY FL–prazosin, one site competitive fit, receptor–ligand BRET
Would you mind telling me the reported Ki of each entry?
One number for each entry, in nM.

Worked examples follow.
> print(dat)
                                   molecule              system.tested  measured.metric  result
1  O=C(NCCN1CCN(c2ccccc2)CC1)Nc1ccc2c(c1)OCCO2 [BCC0079473]  GLuc–ɑ1AAR (Homo sapiens)               Ki     248
2  COc1ccc(-c2nnc(SCC(=O)Nc3cc(C)cc(C)c3)[nH]2)cc1 [BCC0072526]  GLuc–ɑ1AAR (Homo sapiens)               Ki     215
3  O=C(CN1CCC(n2nnc3cc(F)ccc32)CC1)N1CCc2ccccc2C1 [BCC0061678]  GLuc–ɑ1AAR (Homo sapiens)               Ki     274

Attention now turns to another entry.
Which Ki is reported for this molecule? O=C(/C=C/c1nc2ccccc2o1)N1CCC(c2c[nH]c3ccccc23)CC1 [BCC0010913]
2750
